In this section we review reported Bmax values for a set of binders.
ASSAY SYSTEM: T1, NLpoly11S
T1 chain: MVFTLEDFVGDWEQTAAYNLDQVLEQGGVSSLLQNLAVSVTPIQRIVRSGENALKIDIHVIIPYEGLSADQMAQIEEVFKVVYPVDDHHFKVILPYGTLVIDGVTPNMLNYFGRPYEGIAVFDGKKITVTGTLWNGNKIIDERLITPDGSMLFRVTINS
METHOD: luminescence complementation titration, one-site specific binding fit

- BINDER: "VTGYRLFEQAL (modifications not checked) [array2.50]"
  Bmax: 17100
- BINDER: "VTGYRLFQKAS (modifications not checked) [array2.11]"
  Bmax: 80900
- BINDER: "VTGYRLFKQES (modifications not checked) [array2.6]"
  Bmax: 5010
- BINDER: "VTGYRLFQKIS (modifications not checked) [array2.10]"
  Bmax: 113000
